# EXPERIMENTAL_SYSTEM: T1, AXL fragment # 8 (AXL amino acids 219-450, FN III-1+FN III-2+)
# T1 construct: not shown: Yeast display carrier and tags (Aga2p, HA, MYC and any linkers)
# T1 chain: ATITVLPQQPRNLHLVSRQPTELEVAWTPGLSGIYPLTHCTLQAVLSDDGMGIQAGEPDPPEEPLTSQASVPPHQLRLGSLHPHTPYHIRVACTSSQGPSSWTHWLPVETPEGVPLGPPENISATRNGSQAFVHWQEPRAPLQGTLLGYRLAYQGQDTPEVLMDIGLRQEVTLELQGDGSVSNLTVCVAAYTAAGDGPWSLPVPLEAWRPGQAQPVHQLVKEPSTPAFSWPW
# METHOD_NOTES: yeast surface display of hAXL fragments, whole yeast cell ELISA, signal normalised to anti-MYC

{"BINDER": "F107-10G1 (antibody, V domains shown, also called F107-10G1-3) VH: EVNLVESGGGVVKPGASLKLSCEASGFTFSNYGMSWVRQTSDKRLEWVASISGGGGRTYYLDNVKGRFIISRENAKNTLYLQMSSLKSEDTALFYCARGARASYFAMDYWGQGSSVTVSS VL: VIVMTQSHKFMSTSVGDRVSITCKASQDVTTAVAWYQQKPGQSPKLLIYWASTRHTGVPDRFTGSGSGTDYSLTISNVQTEDLAFYYCQQHFTTPLTFGAGTKLELK", "binding result": "no binding"}
{"BINDER": "F107-8D12 (antibody, V domains shown, also called F107-8D12-2; mAb 8D12) VH: QVQLQQPGAELVKPGASVQLSCKASGYTFISFWINWVKQRPGQGLEWMGNIFPGSSSTNYNEKFKSKATLTVDKSSSTAYMQLSSLTSEDSAVYFCARDYYGGSPDYWGQGTTLTVSS VL: DIVMSQSPSSLAVSAGERVTMSCKSSQSLLNTRTRKNYLAWYQQKPGQSPKLLIYWASTRESGVPDRFTGSGSGTDFTLTISSVQAEDLAVYYCKQSYNLWTFGGGTKLEIK", "binding result": "no binding"}
{"BINDER": "F111-3C8 (antibody, V domains shown, also called F111-3C8-2) VH: QVQLQQPGAELGKPGTSVKLSCKASGYTFTSYWMHWVKRVPGQGLEWIGNINPNSTSADYNEKFKRKATLTVDKSSSTAYMQLSTLTSEDSAVYYCTRPLMGPYWYFDVWGTGTTVTVSS VL: QIVLTQSPAIMSASPGEKVTISCSASSSVSYMYWYQQKPGSSPKPWIYRTSNLASGVPARFSGSGSGTSYSLTISSMEAEDAATYYCQQYHNYPPTFGGGTKLEIK", "binding result": "no binding"}
